Target: His-tagged recombinant human TrkA (Homo sapiens (Human))
Sequence (P04629 440-796): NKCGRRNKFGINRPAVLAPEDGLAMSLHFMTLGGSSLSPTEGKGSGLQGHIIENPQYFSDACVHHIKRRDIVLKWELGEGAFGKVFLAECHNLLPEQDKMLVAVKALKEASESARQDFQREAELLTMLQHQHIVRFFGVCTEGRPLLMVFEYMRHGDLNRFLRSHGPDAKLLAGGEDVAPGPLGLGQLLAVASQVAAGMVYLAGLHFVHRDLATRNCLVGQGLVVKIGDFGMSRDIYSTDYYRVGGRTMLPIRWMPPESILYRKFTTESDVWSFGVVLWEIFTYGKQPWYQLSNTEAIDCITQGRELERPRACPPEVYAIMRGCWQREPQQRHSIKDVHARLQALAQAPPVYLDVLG
Assay: TrkA LanthaScreen Eu Kinase Binding Assay
Conditions: averaged IC50; TR-FRET binding, 60 min, 22° C.; read-out: TrkA Enzyme IC50
pIC50: −log10 of the molar value.
Below, each entry is listed alongside its reported pIC50.

Molecule	pIC50
CCN1CCC(NC(=O)Nc2c(C)c(-c3ccc(=O)n(C)c3)nn2-c2ccccc2)c2cc(Cl)ccc21 (stereo not drawn)	> 7.00
Cc1ncc(-c2nn(-c3ccccc3)c(NC(=O)N[C@@H]3c4ccccc4C(C)(C)C[C@H]3O)c2C)cn1	> 7.00

# evaluate next
Name the reported pIC50 value associated with the molecule "Cc1ncc(-c2nn(-c3ccccc3)c(NC(=O)N[C@@H]3c4ccccc4C[C@H]3O)c2C)cn1"
> 7.00

Source listed as patent US10351575B2.
